- Experimental target: MC5-R (HEK-293 cells expressing MC5-R) (Homo sapiens, UniProt P33032)
- Construct: expressed in transfected cells; host or cells: HEK-293
- Sequence (P33032 whole entry): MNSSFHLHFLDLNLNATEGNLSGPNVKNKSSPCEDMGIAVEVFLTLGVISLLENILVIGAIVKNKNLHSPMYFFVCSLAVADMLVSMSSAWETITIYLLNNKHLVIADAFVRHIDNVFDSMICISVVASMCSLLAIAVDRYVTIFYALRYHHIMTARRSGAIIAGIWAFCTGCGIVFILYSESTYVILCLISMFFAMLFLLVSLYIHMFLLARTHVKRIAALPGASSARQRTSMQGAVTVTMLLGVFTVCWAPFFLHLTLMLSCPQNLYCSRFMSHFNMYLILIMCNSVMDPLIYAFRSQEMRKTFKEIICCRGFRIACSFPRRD
- Assay text: cAMP assay for agonist/antagonist status
- Assay type: cell-based
- Condition details: antagonism = inhibition of α-MSH-induced cAMP
Experimental readout: agonist/antagonist status as to MC5-R

NCCCC[C@H]1C(=O)N(CCc2ccc3ccccc3c2)CCN1C(=O)[C@@H](Cc1ccc(Cl)cc1Cl)NC(=O)c1ccc(Oc2ccccc2)cc1    agonist
C[C@@H]1CN(C(=O)[C@H](N)Cc2ccc(Cl)cc2)[C@@H](CCCNC(=N)N)CN1CCc1ccc2ccccc2c1    agonist
NCCCC[C@H]1C(=O)N(CCc2ccc3ccccc3c2)CCN1C(=O)[C@@H](Cc1ccc(Cl)cc1Cl)NC(=O)/C=C/c1ccccc1    agonist
